Cited source: paper PMC5540273

# Tested on: TNK2
# Condition label: concentration: 1 μM, replicates: in singlicate; n = 1;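 also: KINOMEscan kinase panel screen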

Compound	%Inh
Cc1cnc(N)c(/C=C/c2cncc(C(=O)NCCc3ccc(Cl)cc3Cl)c2)c1.Cl	11%
CNc1cc(-c2ccc3c(N)n[nH]c3c2)nc(N)n1	0%
Nc1cccc(-c2ccc3c(N)n[nH]c3c2)n1	0%
Cc1ccc(NC(=O)Nc2ccc(Cl)cc2)cc1-c1ccc(C(=O)Nc2ccncc2)cc1	16%
Cc1ccccc1Cn1ccn2c(=O)cc(N3CCOCC3)nc12	32%
O=C(Nc1n[nH]c2cc(-c3ccsc3)ccc12)C1CC1	8%
COc1ccc(CSc2nnc(-c3ccc4ncsc4c3)o2)cc1C(F)(F)F	0%
Cn1cncc1-c1cc2c(Nc3ccc(OCc4ccccc4)cc3)ncnc2cn1	20%
O=C1NC(=O)C(c2ccc(Cl)cc2)=C1Nc1cccc(Cl)c1	0%
Cc1ccc(NC(=O)Nc2ccccc2F)cc1-c1ccc(C(=O)Nc2ccncc2)cc1	34%
CCn1c(-c2ccccc2)nc2cnccc21	17%
COc1cccc(C2=C(Nc3cc(Cl)c(O)c(Cl)c3)C(=O)NC2=O)c1	26%
COc1ccc(CSc2nnc(-c3ccc4c(c3)CCO4)o2)cc1	0%
CNCc1ccc2nc(NC(=O)c3ccc(C(C)(C)C)cc3)cn2c1	1%
COc1cccc(NC(=O)Nc2ccc(C)c(-c3ccc(C(=O)Nc4ccncc4)cc3)c2)c1	16%
COC(=O)c1cccc(NC(=O)NC2CCN(c3ccnc(Nc4ccc(F)cc4)n3)C2)c1 (stereo not drawn)	17%
Cc1cccc2c(-c3ccncn3)c(-c3ccc(F)cc3)nn12	0%
CC(=O)c1cccc(NC(=O)NC2CCN(c3ccnc(Nc4ccc(F)cc4)n3)C2)c1 (stereo not drawn)	7%
NS(=O)(=O)c1cccc(N/C=C2\C(=O)Nc3ccc(S(=O)(=O)Cc4c(Cl)cccc4Cl)cc32)c1	26%
O=c1cc(N2CCOCC2)nc2n(Cc3ccccc3F)ccn12	4%
COc1ccc(Nc2nccc(NCCNC(=O)Nc3cc(C)ccc3C)n2)cc1	0%
O=C(Nc1n[nH]c2nc(-c3cccs3)c(Br)cc12)C1CCCC1	0%
COc1ccc(Nc2nccc(N3CCC(NC(=O)C(C)c4ccc(Cl)cc4)C3)n2)cc1 (stereo not drawn)	15%
CC(=O)c1c(C)c2cnc(Nc3ccc(N4CCNCC4)cn3)nc2n(C2CCCC2)c1=O	7%
COc1nccc(-c2c(-c3ccc(F)cc3)ncn2CCCN2CCOCC2)n1	0%
CNc1nc(-c2ccc3c(N)n[nH]c3c2)cc(N2C[C@@H](C(=O)NC3CCCCC3)OC[C@H]2C)n1	17%
CC[C@@H]1CO[C@H](C(=O)Nc2ccccc2)CN1c1cc(-c2ccc3c(N)n[nH]c3c2)nc(NC)n1	0%
O=C1NC(=O)C(c2ccc(Cl)cc2)=C1Nc1ccc(O)cc1	0%
Cc1ccc(NC(=O)Nc2ccc(Cl)c(C(F)(F)F)c2)cc1-c1ccc(C(=O)Nc2ccncc2)cc1	10%
Cn1cnc2c(N)ncnc21	0%
CC(C)c1cc(-c2ccc3c(N)n[nH]c3c2)nc(N)n1	14%
COc1ccc(Nc2nccc(-c3ccc(NC(=O)c4cc5cc(F)ccc5[nH]4)cc3)n2)cc1	0%
Nc1ncnc2occ(-c3ccc4c(c3)CCN4C(=O)Cc3cc(F)ccc3F)c12	0%
CNC(=O)c1ccc(C)c(-n2c(C)cc(OCc3ccc(F)cc3F)c(Br)c2=O)c1	0%
CS(=O)(=O)CCNCc1nc(-c2ccc3ncnc(Nc4ccc5c(cnn5Cc5ccccc5)c4)c3c2)cs1.Cl.Cl	18%
Cc1ccc(NC(=O)c2ccc(Cl)cc2)cc1-c1ccc(C(=O)Nc2ccncc2)cc1	25%

* * *

# Tested on: ASK2
# Construct: gene MAP3K6
# Condition label: concentration: 1 μM, replicates: in singlicate; n = 1

Compound	%Inh / %
CNc1nc(-c2ccc3c(N)n[nH]c3c2)cc(N2C[C@@H](C(=O)Nc3ccccc3)CC[C@H]2C)n1	12
Fc1ccc(-c2nc[nH]c2-c2ccncc2)cc1	0
CNCc1ccc2nc(NC(=O)c3ccc(C(C)(C)C)cc3)cn2c1	0
COC(=O)c1cccc(NC(=O)NC2CCN(c3ccnc(Nc4ccc(OC)cc4)n3)C2)c1 (stereo not drawn)	0
c1ccc(-c2ccnc3[nH]ccc23)cc1	19
COC(=O)C(Cc1ccccc1)NC(=O)NC1CCN(c2ccnc(Nc3ccc(F)cc3)n2)C1 (stereo not drawn)	0
Cc1cccc2c(-c3ccncn3)c(-c3ccc(F)cc3)nn12	0
O=C(Nc1n[nH]c2cc(-c3ccsc3)ccc12)C1CC1	30
CN1c2ccc(-c3ccc(C(N)=O)cc3)cc2-c2[nH]ncc2S1(=O)=O	0
COc1ccc2cc(-c3nc(-c4ccccc4C(C)C)[nH]c3-c3ccncc3)ccc2c1	3
Cc1ccccc1Cn1ccn2c(=O)cc(N3CCOCC3)nc12	0
FC(F)(F)c1ccccc1-c1cc(-c2c[nH]nc2-c2ccccn2)ccn1	0
Fc1ccc(-c2nc3n(c2-c2ccncc2)CCS3)cc1	13
Cc1c(Cn2c3ccccc3n3c(=O)cc(N4CCOCC4)nc23)cccc1C(F)(F)F	8
Cc1cnc(N)c(/C=C/c2cncc(C(=O)NCCc3ccc(Cl)cc3Cl)c2)c1.Cl	0
Nc1cccc(-c2ccc3c(N)n[nH]c3c2)n1	13
CC(C)c1cc(-c2ccc3c(N)n[nH]c3c2)nc(N)n1	7
CCc1ccc(-c2ccc3c(c2)-c2n[nH]cc2S(=O)(=O)N3C)cc1	0
Cn1cncc1C(=O)NC1CCN(c2ccnc(Nc3ccc(F)cc3)n2)C1 (stereo not drawn)	3
CC(=O)c1c(C)c2cnc(Nc3ccn(C)n3)nc2n(C2CCCC2)c1=O	0
Cc1ccc(NC(=O)Nc2ccccc2F)cc1-c1ccc(C(=O)Nc2ccncc2)cc1	21
COC(=O)c1cccc(NC(=O)NC2CCN(c3ccnc(Nc4ccc(F)cc4)n3)C2)c1 (stereo not drawn)	1
COc1nccc(-c2c(-c3ccc(F)cc3)ncn2CCCN2CCOCC2)n1	0
Cc1nccc(-c2c(-c3ccc(F)cc3)ncn2CCCN2CCOCC2)n1.Cl	20

* * *

Quick reference for %Inh among some compounds
# System: TNNI3K
# Condition label: concentration: 1 μM, replicates: in singlicate; n = 1
Measured attribute: %Inh (%)

Compound	Value measured
CC(=O)c1cccc(NC(=O)NC2CCN(c3ccnc(Nc4ccc(F)cc4)n3)C2)c1 (centres unmarked) [GSK1379710]	5
Cc1ccc(NC(=O)c2ccc(Cl)cc2)cc1-c1ccc(C(=O)Nc2ccncc2)cc1 [GSK1398467]	21
CS(=O)(=O)CCNCc1nc(-c2ccc3ncnc(Nc4ccc(OCc5ccccc5)c(Cl)c4)c3c2)cs1.Cl [GW582764]	0
O=c1cc(N2CCOCC2)nc2n(Cc3ccccc3F)ccn12 [GSK2297428]	0
CSc1ccc(-c2nc3n(c2-c2ccncc2)CCC3)cc1 [SKF-105561]	49
CC(=O)c1c(C)c2cnc(Nc3ccc(N4CCNCC4)cn3)nc2n(C2CCCC2)c1=O	0
COC(=O)c1cccc(NC(=O)NC2CCN(c3ccnc(Nc4ccc(F)cc4)n3)C2)c1 (centres unmarked) [GSK1379725]	2
COc1ccc(Nc2nccc(N3CCC(NC(=O)C(C)c4ccc(Cl)cc4)C3)n2)cc1 (centres unmarked) [GSK1379735]	6

* * *

The reader will find reported %Inh values listed item by item below.
# Tested on: CDKL3
# Condition label: concentration: 1 μM, replicates: in singlicate; n = 1

Molecule	%Inh
Nc1ncnc2occ(-c3ccc4c(c3)CCN4C(=O)Cc3cc(F)ccc3F)c12	0%
COc1cc2ncnc(Nc3cccc(Br)c3)c2cc1OC.Cl	0%
O=C1NC(=O)C(c2ccc(Cl)cc2)=C1Nc1ccc(O)cc1	0%
O=C1NC(=O)C(c2ccc(Cl)cc2)=C1Nc1cccc(Cl)c1	2%
COc1ccc(CSc2nnc(-c3ccc4ncsc4c3)o2)cc1C(F)(F)F	0%
CNC(=O)c1ccc(C)c(-n2c(C)cc(OCc3ccc(F)cc3F)c(Br)c2=O)c1	25%
Fc1ccc(-c2nc3n(c2-c2ccncc2)CCS3)cc1	0%
CCn1c(-c2c(N)noc2C)nc2cnccc21	0%
COc1cccc(CNC(=O)NC2CCN(c3ccnc(Nc4ccc(F)cc4)n3)C2)c1 (stereo not drawn)	0%

* * *

As shown below, each of these compounds has a reported %Inh value.
# System: BRAF
# Condition label: concentration: 1 μM, replicates: in singlicate; n = 1

Compound	%Inh (%)
Cc1ccc(NC(=O)c2ccc(Cl)cc2)cc1-c1ccc(C(=O)Nc2ccncc2)cc1 [GSK1398467]	0
Cc1ccccc1Cn1ccn2c(=O)cc(N3CCOCC3)nc12 [GSK2269905]	0
COc1cccc(NC(=O)Nc2ccc(C)c(-c3ccc(C(=O)Nc4ccncc4)cc3)c2)c1 [GSK1398474]	30
CC(=O)c1c(C)c2cnc(Nc3ccn(C)n3)nc2n(C2CCCC2)c1=O	3
COc1cccc(CNC(=O)NC2CCN(c3ccnc(Nc4ccc(F)cc4)n3)C2)c1 (stereo not drawn) [GSK1379723]	10
CNCc1ccc2nc(NC(=O)c3ccc(C(C)(C)C)cc3)cn2c1	18
O=C1NC(=O)C(c2ccc(Cl)cc2)=C1Nc1ccc(O)cc1 [SB-340867]	0
Cc1ccc(NC(=O)Nc2ccccc2F)cc1-c1ccc(C(=O)Nc2ccncc2)cc1 [GSK1398477]	20
O=C(Nc1n[nH]c2nc(-c3cccs3)c(Br)cc12)C1CC1 [SB-735297]	0
